Test: small molecules captured by biotinylated probe aFGF2 – biochemical, small-molecule microarray, fluorescence 635/667, stem cell growth factor project, primary screen (AID 1067);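 further: measures binding of biotinylated aFGF2 protein to printed compounds on slides; z-score merges feature fluorescence and signal-to-noise across triplicate slides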
Settings: higher = more signal
Kind request: treat -0.04 as inclusive, so composite z-score at -0.04 or higher is 1.0, anything lower is 0.0.

Is the recorded value of composite z-score equal to or greater than -0.04 for this molecule? `CC[C@@H]1C=C(C(=O)O)[C@H](c2ccccc2)N1S(=O)(=O)c1ccc(C)cc1`
1.0

Is the recorded value of composite z-score equal to or greater than -0.04 for this molecule? `CCCC[C@@H](O)C1=C(COC)C[C@H]2C(=O)N(Cc3ccccc3)C(=O)[C@H]2[C@H]1CO`
0.0

Is the recorded value of composite z-score equal to or greater than -0.04 for this molecule? COc1cc2c(cc1O)C(c1cccs1)N(Cc1cc3c(cc1Br)OCO3)CC2 (stereo unspecified)
1.0

Is the recorded value of composite z-score equal to or greater than -0.04 for this molecule? CCOc1cc(C(O)C2C=CC3C(=O)NC(=O)C3N2Nc2ccc(Cl)cc2Cl)ccc1O (stereo unspecified)
1.0

Is the recorded value of composite z-score equal to or greater than -0.04 for this molecule? `COc1ccc(CCNC(=O)[C@@]2(Sc3ccc(C)cc3)CC(=O)N(Cc3ccccc3C(F)(F)F)[C@@H]2c2ccc(CO)cc2I)cc1`
0.0

Is the recorded value of composite z-score equal to or greater than -0.04 for this molecule? `CCOC(=O)C[C@H]1[C@H](OC(=O)c2ccccc2-c2ccccc2)[C@@H](NC(=O)c2ccc3ccccc3n2)c2cc(OCCCO)ccc2N1C(=O)Cc1ccc(OC)cc1`
0.0

Is the recorded value of composite z-score equal to or greater than -0.04 for this molecule? O=C1OCCC=C[C@H]2OC34C=CCN(c5ccc6ccccc6c5)C(=O)[C@H]3N(CCCO)C(=O)[C@@H]4C12 (stereo partly specified)
0.0

Is the recorded value of composite z-score equal to or greater than -0.04 for this molecule? `CCOC(=O)C[C@H]1[C@H](OC(=O)c2cc3ccccc3oc2=O)[C@@H](NC(=O)c2ccccc2)c2cc(OCCCO)ccc2N1C(=O)c1ccccc1`
0.0

Is the recorded value of composite z-score equal to or greater than -0.04 for this molecule? `C=C(/C(=C/C[C@H](OC(=O)c1ccncc1)c1ccc(CO)o1)c1cnc2ccccc2c1)C(C)C`
1.0

Is the recorded value of composite z-score equal to or greater than -0.04 for this molecule? `COC(=O)c1c(CC[C@@H](CO)NC(=O)N2CCC[C@H]2Cn2cc(C3(O)CCCCC3)nn2)oc(C(C)=O)c1C(=O)OC`
0.0

Is the recorded value of composite z-score equal to or greater than -0.04 for this molecule? COC(=O)C1=CC(CCCO)=CC(c2cccs2)N(C)C=C1C(=O)OC (stereo unspecified)
0.0

Is the recorded value of composite z-score equal to or greater than -0.04 for this molecule? CCCCC(CC)C(O)C1C=CC2C(=O)N(C)C(=O)C2N1Nc1ccccc1 (stereo unspecified)
0.0

Is the recorded value of composite z-score equal to or greater than -0.04 for this molecule? `CCOC(=O)C[C@H]1[C@H](OC(=O)Cc2ccc3c(c2)OCO3)[C@@H](NC(=O)c2ccc3ccccc3n2)c2cc(OCCCO)ccc2N1C(=O)c1ccc2ccccc2n1`
0.0

Is the recorded value of composite z-score equal to or greater than -0.04 for this molecule? `COc1ccc([Si](C)(C)[C@@H]2[C@@H](CCO)O[C@]3(C(=O)N(Cc4ccccc4)c4ccc(N5C(=O)c6cccc7cccc5c67)cc43)[C@H]2C)cc1`
0.0

Is the recorded value of composite z-score equal to or greater than -0.04 for this molecule? `COC(=O)[C@@]1(Cc2ccc(OC)cc2)[C@H]2c3cc(C(=O)N4CCCC4)n(CCc4c[nH]c5ccc(OC)cc45)c3C[C@H]2CN1C(=O)c1ccccc1`
1.0

Is the recorded value of composite z-score equal to or greater than -0.04 for this molecule? `COCCCNC(=O)[C@@H]1c2ccccc2C(=O)N(C(C)C)[C@H]1c1ccc(CO)cc1`
0.0

Is the recorded value of composite z-score equal to or greater than -0.04 for this molecule? `NC(=O)NCC#Cc1ccc2c(c1)[C@]1(C(=O)N2)[C@H](c2ccccc2OCCO)N2[C@H](c3ccccc3)[C@H](c3ccccc3)OC(=O)[C@H]2[C@@H]1C(=O)O`
1.0

Is the recorded value of composite z-score equal to or greater than -0.04 for this molecule? `COc1ccc([Si](C)(C)[C@@H]2[C@@H](CCO)O[C@]3(C(=O)N(Cc4ccccc4)c4ccc(N5CCOC5=O)cc43)[C@H]2C)cc1`
1.0

Is the recorded value of composite z-score equal to or greater than -0.04 for this molecule? `O=c1cccc(-c2ccc([N+](=O)[O-])cc2)o1`
1.0

Is the recorded value of composite z-score equal to or greater than -0.04 for this molecule? `CCCN1C(=O)[C@@]2(Cc3ccccc31)N=C(c1ccc(OCCCO)cc1)O[C@H]2c1ccccc1`
0.0

Is the recorded value of composite z-score equal to or greater than -0.04 for this molecule? `C=CC[C@]1(C(=O)N2CCOCC2)COC(c2ccc(OCCCO)cc2)=N1`
1.0

Is the recorded value of composite z-score equal to or greater than -0.04 for this molecule? CCCCCN1CC=CC23O[C@@H]4C=CCCOC(=O)C4[C@H]2C(=O)N(CCCCCCO)[C@@H]3C1=O (stereo partly specified)
0.0

Is the recorded value of composite z-score equal to or greater than -0.04 for this molecule? CCCCC(O)C1C=CC2C(=O)N(C)C(=O)C2N1N(c1ccccc1)c1ccccc1 (stereo unspecified)
1.0

Is the recorded value of composite z-score equal to or greater than -0.04 for this molecule? CCCC1(C(=O)OC)C=C2C(=C(C)C(=O)C2C)CN1 (stereo unspecified)
1.0

Is the recorded value of composite z-score equal to or greater than -0.04 for this molecule? CCCCCCCCCCC(O)C1C=CC2C(=O)N(c3ccccc3)C(=O)C2N1Nc1ccc(C#N)cc1 (stereo unspecified)
1.0

Is the recorded value of composite z-score equal to or greater than -0.04 for this molecule? `C=CC[C@H](OC(=O)Nc1ccc(SC)cc1)c1ccc(O)c2ccccc12`
1.0

Is the recorded value of composite z-score equal to or greater than -0.04 for this molecule? `C=CC[C@@H](OC(=O)Nc1ccc(SC)cc1)c1ccc(O)c(F)c1`
0.0

Is the recorded value of composite z-score equal to or greater than -0.04 for this molecule? `COC(=O)c1c(CC[C@@H](CO)NC(=O)N[C@@H](C)Cn2cc(-c3ccccn3)nn2)oc(C(C)=O)c1C(=O)OC`
0.0

Is the recorded value of composite z-score equal to or greater than -0.04 for this molecule? `COCCOC(=O)N1C(=O)[C@@]2(c3cc(C#CC4=CCCCC4)ccc31)[C@H](c1ccccc1OCCO)N1[C@H](c3ccccc3)[C@H](c3ccccc3)OC(=O)[C@H]1[C@@H]2C(=O)N1CCN(c2ncccn2)CC1`
0.0

Is the recorded value of composite z-score equal to or greater than -0.04 for this molecule? `O=C(O)[C@@H]1[C@@H]2C(=O)N(c3ccccc3)C(=O)[C@@H]2C[C@@H]1Sc1ccccc1`
0.0

Is the recorded value of composite z-score equal to or greater than -0.04 for this molecule? COC(=O)C1(CC(C)C)C=C2C(=C(c3ccccc3)C(=O)C2C)CN1 (stereo unspecified)
1.0

The measurements presented in this section are drawn from PubChem BioAssay.
